B1: HDV Ribozyme (parent)
chain: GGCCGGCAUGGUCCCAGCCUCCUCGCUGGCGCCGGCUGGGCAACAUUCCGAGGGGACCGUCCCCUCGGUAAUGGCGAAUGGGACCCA

Variants of: B1
Experiment: self-cleavage, relative activity (ratio to wild type); higher = more cleavage; co-transcriptional
readout name: self-cleavage

Q: Looking for the measured self-cleavage of GGCCGGCAUGGUCCCAGCCUCCUCGCUGGCGCCGGCUGGGCAACAUUCCGAGGGGACCGUCCCCUCGGUAAUGGCUAAUGGGUCCCA [G76U A83U] , can you help?
A: 0.481

Q: Recorded self-cleavage of GGCCGGCAUGGUCCCAGCCUCCUCGAUGGCGCCGGCGGGGCAACAUUCCGAGGGGACCGUCCCCUCGGUAAUGGCGAAUGGGACCCA [C26A U37G] , please.
A: 0.19

Q: Can you share its self-cleavage? I mean this variant: GGCCGGCAUGGUCCCAGCCUCCUCGCUGGCGCCGGCUGGGCAACAUUCCAAGGCGACCGUCCCCUCGGUAAUGGCGAAUGGGACCCA [G50A G54C]
A: 0.628

Q: So what does the record say about self-cleavage for GGCCGGCAUGGUCCCAGCAUCCUCGCUGGCGCCGGCUGGGCAACAUUCCGAGGGGACCGUCCCCUCAGUAAUGGCGAAUGGGACCCA [C19A G67A] ?
A: 0.0941

Q: Given the entry GGCCGGCAUGGUCCCAGCCUCCUCGCUGGCGCCGGCUGGGCAACAUUCCGAGGCGACCGUCCCCUCGGUAGUGGCGAAUGGGACCCA [G54C A71G] , report its measured self-cleavage.
A: 0.646

Q: Entry GGCCGGCAUGGUCACAGCCUCCUCGCUGGGGCCGGCUGGGCAACAUUCCGAGGGGACCGUCCCCUCGGUAAUGGCGAAUGGGACCCA [C14A C30G] has what self-cleavage?
A: 0

Q: So what's the measured self-cleavage for this one? GGCCGGCAUAGUCCCAGCCUCCUCGCUGGCGCCGGCUGGGCAACAUUCCGAGGGGACCGUCCCCGCGGUAAUGGCGAAUGGGACCCA [G10A U65G]
A: 0.767

Q: For the variant shown here, GGCCGGCAUGGUCCCAGCCUCCUCGCUGGCGCCGGCUGGGCAACAUAUCGAGGGGACCGUCCCCUCGGUAAUGGCGAAUGGGACCCA [U47A C48U] , give the reported self-cleavage.
A: 0.923

Q: self-cleavage for GGCCGGCAUGUUCCCAGCCUCCUCGCUGGCGCCAGCUGGGCAACAUUCCGAGGGGACCGUCCCCUCGGUAAUGGCGAAUGGGACCCA [G11U G34A] ?
A: 0.21

Q: Suppose we examine the variant GGCCGGCAUGGUCCCAGCCUCCUCGCUGGCGCCGGCUGGGCAACAUUCCGAGGGGACCGUCCCGUCGGUAAUGGCGAAUGGCACCCA [C64G G82C] ; what self-cleavage value has been reported?
A: 0.0811

Q: Record request: self-cleavage value, item GGCCGACAUGGUCCCAGCCUCCUCGCUGGCGCCGGCUGGGCAACAUUCCGAGGGGACCGUCCCCUCGGUAAAGGCGAAUGGGACCCA [G6A U72A]
A: 0.0875

Q: What does the record list as self-cleavage for GGCCGGCAUGGUACCAGCCUCCUUGCUGGCGCCGGCUGGGCAACAUUCCGAGGGGACCGUCCCCUCGGUAAUGGCGAAUGGGACCCA [C13A C24U] ?
A: 0.145

Q: Query (variant): GGCCGGCAUGGUCCCAGCCUCCUCGCUGGCCCCGGCUGCGCAACAUUCCGAGGGGACCGUCCCCUCGGUAAUGGCGAAUGGGACCCA [G31C G39C] ; field requested: self-cleavage
A: 0.0475

Q: Report self-cleavage for GGCCGGCAUGGUCCCAGCCUCCUCGCUGGCGCCGGCUGGGCAACAUUCGGAGGGGACCAUCCCCUCGGUAAUGGCGAAUGGGACCCA [C49G G59A] please.
A: 1.11

Q: Fill in: self-cleavage of GGCCGGCAUGGUCCCAGCCUCCUCGCUGGCGCCGGCUGGGCAACAUUCCGAGGGGAUCGUCCCCUCGGUAAUGGCGGAUGGGACCCA [C57U A77G] is ___
A: 0.941

Q: Requested read-out: self-cleavage. Entry: GGCCGGCAUGGUCCCAGCCUCCUCGCUGGCGCCGGCUGGGCAUCAUUCCGAGGGGACCGUCCCCUCGGUAAUGGCGAUUGGGACCCA [A43U A78U]
A: 0.0489

Q: Name the reported self-cleavage value associated with the variant GGCCGGCAUGGUCCCAGCUUCCUCGCUGGCUCCGGCUGGGCAACAUUCCGAGGGGACCGUCCCCUCGGUAAUGGCGAAUGGGACCCA [C19U G31U]
A: 0.115

Q: Requested field: self-cleavage. Item: GGCCGGCAUGGUCCCAGCCUCCUCGCUGGCGCCGGCUGGGCAACAUUCCGAGGCGACCGUCCCCUCGGUACUGGCGAAUGGGACCCA [G54C A71C]
A: 0.608

Q: Given GGCCGGCAUGGUCCCAGCCUCCUUGCUGGCGCCGGCUGGGAAACAUUCCGAGGGGACCGUCCCCUCGGUAAUGGCGAAUGGGACCCA [C24U C41A] , state its recorded self-cleavage.
A: 0.608

Q: Requested field: self-cleavage. Item: GGCCGGCAUGGUCCCAGCCUCCUCGCUGGCGCCGGCUGGGCAACAUUCCGAAGGGACCGUCCCCUCGGUAAUGGCGAGUGGGACCCA [G52A A78G]
A: 0.604

Q: What value of self-cleavage has been reported for the following variant? GGCCGGCAUGGUCCCAGCCUCCUCGCUGGCGCCGGCGGGGCAACAUUCCGAGGGGACCGUCCCCUCGGUAAUGACGAAUGGGACCCA [U37G G74A]
A: 0.229

Q: Look at this variant and give its reported self-cleavage. GGCCGGCAUGAUCUCAGCCUCCUCGCUGGCGCCGGCUGGGCAACAUUCCGAGGGGACCGUCCCCUCGGUAAUGGCGAAUGGGACCCA [G11A C14U]
A: 0.277

Q: Please give the measured self-cleavage for this variant: GGCCGGCAUGGUCCCAGCCUCCUCGCUGGCGCCGGCUGGGCAACAUUCCGAGGGGACCGUCCCCUCGGUAAUGUCGAAUGGGACCCU [G74U A87U]
A: 0.506

Q: Entry GGCCGGCAUGGUCCCAGCCUCCUCGCUGGCGCCGGCUGGGCAACAUUCCGAGGAGACCGUCCCCUCGGUAAUGGCGAACGGGACCCA [G54A U79C] has what self-cleavage?
A: 0.411

Q: Can you look up the measured self-cleavage of GACCGGCAUGGUCCCAGCCUCCUCGCUGGCGCCGGCUGGGCAACAUUCCGAGGGGACCGUCCCCUCGGUAAUGUCGAAUGGGACCCA [G2A G74U] for me?
A: 0.073

Q: // self-cleavage lookup, key: GGCCGGCAUUGUCCCAGCCUCCUCGCUGGCGCCGGCUGGGCAACUUUCCGAGGGGACCGUCCCCUCGGUAAUGGCGAAUGGGACCCA [G10U A45U]
A: 0.506

Q: Can you share its self-cleavage? I mean this variant: GGCCGCCAUGGUCCCAGCAUCCUCGCUGGCGCCGGCUGGGCAACAUUCCGAGGGGACCGUCCCCUCGGUAAUGGCGAAUGGGACCCA [G6C C19A]
A: 0

Q: Look at this variant and give its reported self-cleavage. GGCCGGCAUGGUCCCAGCCUCCUCGCUGCCGCCGGCUGGGCAACAUUCCGAGGGGACCGUCCCCUCGGUAAUGGCUAAUGGGACCCA [G29C G76U]
A: 0.119

Q: Would you mind telling me what self-cleavage value was observed for GGUCGGCAUGGUCCCAGCCUCCUCGCUGGCGCCGGCUGGGCAACAUUCCGAGGGGACCGUCCCCUCGGUAAUGGCCAAUGGGACCCA [C3U G76C] ?
A: 0.708

Q: What value of self-cleavage has been reported for the following variant? GGCCGGCAUGGUCCCAGCCUCCUCGCUGGCGCCGGCUGGGCAACAUUCCGAGGGGACCGUCCCCUUAGUAAUGGCGAAUGGGACCCA [C66U G67A]
A: 0.786

Q: Any idea what self-cleavage was measured for GGCCGGCAUGGUCCCAGCCUCCUCGCUGGCGCCGGCUGGGCAACAUUCCGAGGGGACCGUCCCCUAGGUAAUGGCGAACGGGACCCA [C66A U79C] ?
A: 0.582

Q: Name the recorded self-cleavage for GGCCGGGAUGGUCCCAGCCUCCUCGCUGGCGCCGGCUGGGCAAUAUUCCGAGGGGACCGUCCCCUCGGUAAUGGCGAAUGGGACCCA [C7G C44U] .
A: 0.0462

Q: Data request, read-out self-cleavage, for GGCCGGCGUGGUUCCAGCCUCCUCGCUGGCGCCGGCUGGGCAACAUUCCGAGGGGACCGUCCCCUCGGUAAUGGCGAAUGGGACCCA [A8G C13U]
A: 0

Q: Reported self-cleavage, variant GGCCGGCAUGGUCCAAGCCUCCUCGCUGGCGCCGCCUGGGCAACAUUCCGAGGGGACCGUCCCCUCGGUAAUGGCGAAUGGGACCCA [C15A G35C] : ____
A: 0.138

Q: Any idea what its self-cleavage is? The variant is GGCCGGCAUGGUCCCAGCCUCCUCGCUGACGCCGGCUCGGCAACAUUCCGAGGGGACCGUCCCCUCGGUAAUGGCGAAUGGGACCCA [G29A G38C]
A: 0.0292

Q: # get_value(readout='self-cleavage', item= GGCCGGCAUAGUCCCAGCCUCCUCGCUGGCGCCGGCUGGGCAACAUUCCGAGGGGACCGUCCCCUCGGUAAUGGCUAAUGGGACCCA [G10A G76U] )
A: 0.997

Q: // self-cleavage lookup, key: GGCCGGCAUGGUCCCAGCCUCCUCGCUGGCGCCGGCUGGGCAACAUUCCGAGGGGACCGUCCCCUCGGUAAUGGAGAAGGGGACCCA [C75A U79G]
A: 0.208

Q: Need self-cleavage, item GGCCGGCAUGGUCCCAGCCUCCUCGCUGGCGCCGGCUGGGCAACACUGCGAGGGGACCGUCCCCUCGGUAAUGGCGAAUGGGACCCA [U46C C48G]
A: 1.18

Q: If you can, please state the reported self-cleavage value of UGCCGGCAUGGUCCCAGCCUCCUCGCUGGCGCCGGCUGGGCAAUAUUCCGAGGGGACCGUCCCCUCGGUAAUGGCGAAUGGGACCCA [G1U C44U] .
A: 0.252

Q: Give the measured self-cleavage of GGCCGGCAUGGUCCCAGCCUCCUCGCUGGCGCCGGCUGGGCAACAUUCCGAGGGGACCGUCCCCUCGGAAAUGGCGGAUGGGACCCA [U69A A77G] .
A: 0.72

Q: Please report the recorded self-cleavage for GGCCGGCAUGGUCCCAGCCUCCUCGCUGGCGCCGGCUGGGCAACAUUGCGAGGGGACCGUCCCCUUGGUAAUGGCGAAUGGGACCCA [C48G C66U] .
A: 0.868

Q: Return reported self-cleavage; argument: GGCCGGCAUGGUCCCAGACUCCUCGAUGGCGCCGGCUGGGCAACAUUCCGAGGGGACCGUCCCCUCGGUAAUGGCGAAUGGGACCCA [C18A C26A]
A: 0.244

Q: # self-cleavage lookup, item GGCCGGCAUGGUCCCAGCCUCCUCGCUGGCGCCGGCUGGGCAACAUUCCGAGGGGACCGUCCCCUCGGUCAUGGCGAAUAGGACCCA [A70C G80A]
A: 0.177

Q: Given the variant GGCCGGCAUGGUCCCAGCCUCCUCGCUGGCGCCGGCUGGGCAACAUCCCGAGGGGACCGUCCCCUCGGUAAUGGCGCAUGGGACCCA [U47C A77C] , what is its reported self-cleavage?
A: 0.317

Q: // self-cleavage lookup, key: GGCCGGCAUGGUCCCAGCCUCCUCGCUGGCGCCGGCUGGGCAACAUUCCGAGGGGACCGUCCCCUCGGUAACGCCGAAUGGGACCCA [U72C G74C]
A: 0.26

Q: Could you share which self-cleavage value was measured for GGCAGGCAUGGUCCCAGCCUCCUCGCUGGCGCCGGCUGGGCAACAUUCGGAGGGGACCGUCCCCUCGGUAAUGGCGAAUGGGACCCA [C4A C49G] ?
A: 0.302
